compounds and their reported Growth Rate
- Tested on: Fibroblast
- Assay Comment: Incucyte cell viability with human fibroblast; note: unitless GR value; below 1 slowed growth and below 0 cell loss
- Type: toxicity, cell-based
- Study Conditions: 12 h, 10 µM, compound concentration 10 uM, replicate number 1
Form field (numeric): enter value without unit.

[[record]]
compound = "CN1CCN(c2ccc(/C=C(\\C#N)c3ccccc3Br)cc2)CC1.Cl.Cl"
reported_value = 0.42


Exam item: API: value(readout= Growth Rate, system= Fibroblast, query= `CC(=O)O.Cc1cc2c(ncn2C2(C)CN(C(=O)c3ccn(CC4CCN([C@H]5C=CCCCC5)CC4)c3)C2)c(N)n1` )
Marked response: 0.9

Exam item: Then what about the compound `O=C(NC1CCNCC1)c1n[nH]cc1NC(=O)c1c(Cl)cccc1Cl` ?
Marked response: 0.38

Exam item: Then what about the compound `CC(C)N1CCN(Cc2cnc(-c3cc(-c4cccc5[nH]ccc45)cc4[nH]ncc34)o2)CC1` ?
Marked response: 0.04

Exam item: Then what about the compound `COc1cc(C(=O)NCCOCCOCCOCC(=O)N[C@H](C(=O)N2C[C@H](O)C[C@H]2C(=O)NCc2ccc(-c3scnc3C)cc2)C(C)(C)C)ccc1Nc1ncc(C(F)(F)F)c(Oc2cccc3c2C(=O)CC3)n1` ?
Marked response: 0.45

Exam item: Then what about the compound `O=C(O)CNC(=O)c1c(O)c2ccccc2n(Cc2ccccc2)c1=O` ?
Marked response: 0.75

Exam item: Then what about the compound `COc1ccccc1N1CCN(c2ncnc3c2cnn3-c2ccccc2)CC1` ?
Marked response: 0.42

Exam item: Then what about the compound CC1CNCCc2c1nc1ccnn1c2N1CC(C(=O)N2CCC(C)(C)C2)C1 (stereo not drawn) ?
Marked response: 0.56

====

- Test system: U2OS
- Assay Comment: Incucyte cell viability with U2OS; note: unitless GR value; below 1 slowed growth and below 0 cell loss
- Format: toxicity, cell-based
- Study Conditions: human, 6 h, 10 µM, compound concentration 10 uM, replicate number 2
Measured Quantity: Growth Rate
Form field (numeric): enter value without unit.

Worked examples, 3 compounds total:
[[record]]
compound = "Cc1cc2c(cc(C(=O)N[C@H](CO)c3ccc(S(=O)(=O)CC(=O)O)cc3)n2C)c(Cl)c1Cl"
reported_value = 0.7

[[record]]
compound = "CCn1c(CNC(=O)c2nc(Cl)cnc2N)[n+](CC)c2ccc(C(=O)N(C)CCN(C)C)cc21.[Cl-]"
reported_value = 0.97

[[record]]
compound = "CC(=O)Nc1c(F)cc(C(=O)N[C@H]2CC[C@H](O)CC2)cc1O[C@@H](C)c1ccccc1 [GSK046]"
reported_value = 0.86


Exam item: State the recorded Growth Rate for this entry: `COc1c(C(=O)/C=C/c2ccccc2)c(O)c(OC)c2occc12`
Marked response: 0.76

Exam item: Then what about the compound `Cl.O=C(c1ccc(-c2ccc(Cl)cc2)o1)N(Cc1ccccn1)c1ccc(N2CCNCC2)cc1` ?
Marked response: 0.57

Exam item: Then what about the compound `CC(C)Oc1ccc(-c2cnc3c(-c4ccnc5ccccc45)cnn3c2)cc1` ?
Marked response: 0.23

Exam item: Then what about the compound CCOC(=O)C1Cc2ccccc2CN1C(=O)c1ccc(SC)s1 (stereo not given) ?
Marked response: 0.87

Exam item: Then what about the compound CC1(C)CCC[C@]2(C)[C@@H](C=O)C(C=O)=CC[C@@H]12 [POLYGODIAL] ?
Marked response: 0.73

====

- Tested on: U2OS
- Assay Comment: Incucyte cell viability with U2OS; note: unitless GR value; below 1 slowed growth and below 0 cell loss
- Assay type: toxicity, cell-based
- Study Conditions: human, 18 h, 10 µM, compound concentration 10 uM, replicate number 1
Measured Quantity: Growth Rate
Form field (numeric): enter value without unit.

Exam item: State the recorded Growth Rate for this entry: `CN(Cc1cccc(F)c1CNc1cc(F)c(S(=O)(=O)Nc2cscn2)c(F)c1)C(C)(C)C`
Marked response: 0.89

Exam item: Then what about the molecule `O=C(Nc1c[nH]nc1-c1nc2cc(CN3CCOCC3)ccc2[nH]1)NC1CC1` ?
Marked response: -0.05

Exam item: Then what about the molecule `COc1c(NC(=O)c2cc3cccc(Oc4ccnc(C(=O)N5CCN(C)CC5)c4)c3n2C)cc(C(C)(C)C)cc1NS(C)(=O)=O` ?
Marked response: 0.83

Exam item: Then what about the molecule `O=S(=O)(Nc1nncs1)c1cc(Cl)c(Oc2ccc(C(F)(F)F)cc2-c2ccnn2C2CNC2)cc1F` ?
Marked response: 0.95

Exam item: Then what about the molecule `COc1cc(-c2cc3ncccc3c(OC[C@H]3CNC(=O)C3)n2)cc(OC)c1OC1CCOCC1.O=C(O)C(F)(F)F` ?
Marked response: 0.76

Exam item: Then what about the molecule `CN[C@@H]1CC[C@@H](c2ccc(Cl)c(Cl)c2)c2ccccc21.Cl` ?
Marked response: 0.81

Exam item: Then what about the molecule `N[C@@H]1CCCC[C@H]1Oc1ccc2ncc(-c3cc4ccccc4o3)n2n1` ?
Marked response: -0.88

Exam item: Then what about the molecule `COC(=O)c1ccc2c(c1)NC(=O)/C2=C(\Nc1ccc(N(C)C(=O)CN2CCN(C)CC2)cc1)c1ccccc1` ?
Marked response: 0.97
